- System: OVCAR-3
- test: NCI tumour cell line growth inhibition, 48 h
Calls of active or inactive are those of the source. Rule as the data show it: active = GI50 up to about 1.1 µM and inactive = higher.
measured-property: GI50

Query string: For c1ccc(SC(Sc2ccccc2)c2ccc3c(c2)OCO3)cc1 , what is its reported GI50?
Result string: 60.3 µM (inactive)

Query string: Next molecule up: C/C=C/C[C@@H](C)C(=O)C1C(=O)N[C@@H](C(C)C)C(=O)N(C)CC(=O)N(C)[C@@H](CC(C)C)C(=O)N[C@@H](C(C)C)C(=O)N(C)[C@@H](CC(C)C)C(=O)N[C@@H](C)C(=O)N[C@@H](C)C(=O)N(C)[C@@H](CC(C)C)C(=O)N(C)[C@@H](CC(C)C)C(=O)N(C)[C@@H](C(C)C)C(=O)N1C (stereo partly drawn)
Result string: 4.09 µM (inactive)

Query string: Next molecule up: Oc1nc(-c2ccc3ccccc3c2)nc2ccccc12
Result string: 35.4 µM (inactive)

* * *

- System: SK-MEL-28
- test: NCI tumour cell line growth inhibition, 48 h
Calls of active or inactive are those of the source. Rule as the data show it: active = GI50 up to about 1.1 µM and inactive = higher.
Consider the following molecules; for each one, report its GI50.

Query string: For O=S(=O)(c1ccccc1)N1CCC1c1ccccc1 (centres undefined) , what is its reported GI50?
Result string: > 100 µM (inactive)

Query string: Next molecule up: COc1cc(-c2cc(O)c3cc4c(cc3n2)OCO4)cc(OC)c1OC
Result string: > 100 µM (inactive)

Query string: Next molecule up: CC1=C(C(=O)O)N2C(=O)[C@@H](NC(=O)C(c3ccc(O)cc3)N3CSC(=S)N(C(C)C)C3)C2SC1 (some centres undefined)
Result string: > 100 µM (inactive)

Query string: Next molecule up: O=C(N/C(=C/c1ccc(Cl)cc1)c1nc2ccccc2c(=O)n1Nc1ccc([N+](=O)[O-])cc1[N+](=O)[O-])c1ccccc1
Result string: > 100 µM (inactive)

* * *

- System: NCI-H460
- test: NCI tumour cell line growth inhibition, 48 h
Calls of active or inactive are those of the source. Cut-off read from the data, not from the text of the source: active = GI50 up to about 1.1 µM and inactive = higher.
The reply should name one outcome from T (active), F (inactive)

Query string: Which outcome did this test record for the compound CN(c1ccc(Cl)cc1)S(=O)(=O)c1ccc([N+](=O)[O-])cc1 ?
Result string: F

Query string: Next compound up: CCc1nc2c(c(N(C)C)c1C(=O)OC)CCc1ccccc1-2
Result string: F

Query string: Next compound up: Clc1cc2ns[s+]c2cc1Cl
Result string: F

Query string: Next compound up: O=c1cc(-c2ccccc2F)[nH]c2ccc(N3CCCC3)cc12
Result string: T

Query string: Next compound up: C/C=C/C=C\C=C/C(O)C(C)C(CCC(C)C1OC(=O)C=CC1C)OP(=O)(O)O (stereo not given)
Result string: T

Query string: Next compound up: Cc1cc(C)c(/C=C2\C(=O)Nc3ccccc32)[nH]1
Result string: F

Query string: Next compound up: O=C(Cc1ccccc1)Nc1nc2ccc(Cl)cc2c2nc(-c3ccco3)nn12
Result string: F

Query string: Next compound up: CC1=CC2(C)C=C[C@@H]1C(=O)[C@@]1(C)CC[C@@](O)(C(C)C)[C@H]1CC2
Result string: F

Query string: Next compound up: Oc1c(N2CCOCC2)cc(-c2cc(N3CCOCC3)c(O)c3ccccc23)c2ccccc12
Result string: F

Query string: Next compound up: Nc1ncnc2c1nc(Cl)n2[C@@H]1O[C@@H]2COP(=O)(O)O[C@H]2[C@H]1O
Result string: F
